Test system: A20
PROTOCOL_DETAILS: cells
Format: cell-based
SETUP_CONDITIONS: ratio of MRC-5 to A20 values
Description: Cancer Cell Lines A20 or MethA Anticancer assays: 500 μg/ml
Starred links: 1 amine or outer side, 2 acyl side, 3 side chain; linkers in the order of their positions; H or OH if unused. Non-standard residues stand in square brackets, D forms with d. Residues, ends and D or L forms follow the SMILES beside them. X5 = O=C(C(CCC1CCCCC1)(CCC1CCCCC1)CN[*:1])[*:2]
Use Satisfied when the recorded Anti-Cancer Selectivity MRC-5/A20 is no lower than 4; use Not satisfied when it is lower.

# example entries with known answers
NCCNC(=O)C(CN)(Cc1ccccc1)Cc1ccccc1 | Not satisfied
NCCCC[C@@H](N)C(=O)N[C@H](CCCCN)C(=O)N[C@H](Cc1c[nH]c2ccccc12)C(=O)NCC(CCC1CCCCC1)(CCC1CCCCC1)C(=O)N[C@@H](Cc1c[nH]c2ccccc12)C(=O)N[C@@H](CCCCN)C(=O)N[C@@H](CCCCN)C(N)=O [Compound 15] (H-[dK][dK][dW][X5]WKK-NH2) | Not satisfied
NCCCC[C@@H](N)C(=O)N[C@H](CCCCN)C(=O)N[C@H](Cc1c[nH]c2ccccc12)C(=O)NCC(Cc1ccc(C(F)(F)F)cc1)(Cc1ccc(C(F)(F)F)cc1)C(=O)N[C@@H](Cc1c[nH]c2ccccc12)C(=O)N[C@@H](CCCCN)C(=O)N[C@@H](CCCCN)C(N)=O | Satisfied
NCCNC(=O)C(CN)(CCCc1ccccc1)CCCc1ccccc1 | Satisfied
CC(C)(C)c1ccc(CC(CN)(Cc2ccc(C(C)(C)C)cc2)C(=O)NCCN)cc1 | Not satisfied

Attention now turns to another entry.
Would you say NCCCC[C@@H](N)C(=O)N[C@H](CCCCN)C(=O)N[C@H](Cc1c[nH]c2ccccc12)C(=O)NCC(Cc1ccc2ccccc2c1)(Cc1ccc2ccccc2c1)C(=O)N[C@@H](Cc1c[nH]c2ccccc12)C(=O)N[C@@H](CCCCN)C(=O)N[C@@H](CCCCN)C(N)=O shows Anti-Cancer Selectivity MRC-5/A20 at minimum 4?
Satisfied
